- experimental system: UniProtKB P34896
- Sequence (P34896 whole entry): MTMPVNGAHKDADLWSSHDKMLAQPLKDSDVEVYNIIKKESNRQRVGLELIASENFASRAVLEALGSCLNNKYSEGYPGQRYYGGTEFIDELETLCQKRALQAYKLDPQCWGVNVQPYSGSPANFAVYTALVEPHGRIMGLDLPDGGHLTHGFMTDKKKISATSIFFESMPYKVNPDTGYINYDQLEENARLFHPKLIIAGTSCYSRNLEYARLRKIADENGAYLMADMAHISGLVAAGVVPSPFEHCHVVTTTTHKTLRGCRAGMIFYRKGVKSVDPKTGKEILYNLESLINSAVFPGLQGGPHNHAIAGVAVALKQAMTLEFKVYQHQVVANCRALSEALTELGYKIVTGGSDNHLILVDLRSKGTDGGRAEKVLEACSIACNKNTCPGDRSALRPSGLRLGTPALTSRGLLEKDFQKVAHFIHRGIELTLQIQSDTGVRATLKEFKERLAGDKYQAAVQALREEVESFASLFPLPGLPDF
- Type: binding
attribute measured: Kd (nM)
The response must be a number in nM with no trailing unit.

Q: Return Kd measured with UniProtKB P34896 given this compound: Nc1nc2c(c(=O)[nH]1)N(C=O)C(CNc1ccc(C(=O)N[C@@H](CCC(=O)O)C(=O)O)cc1)CN2 (stereo partly shown) [Leucovorin, 5-formyltetrahydrofolate]
Result: 1500

Data provenance is paper PMC5438088.
